targetSystem: human HSL (Homo sapiens)
Construct: generate a full length human HSL ORF with a 3′-His6 tag; His6 (C); made in house; host or cells: High 5 insect cells (baculovirus, pFast-BAC)
assay: Human Hormone-Sensitive Lipase (HSL) enzyme inhibition assay (colorimetric, DMPT substrate)
Type: biochemical
conditionNotes: read-out: HSL hum IC50
pIC50: −log10 of the molar value.
measuredProperty: pIC50

INSERT INTO results (molecule, measuredproperty, observedresult) VALUES
  ('CC(C)(C)c1ccc(NC(=O)C2(O)CCN(C(=O)c3cc(F)ccc3F)CC2)cc1', 'pIC50', 6.19);

[P] COc1ccc(S(=O)(=O)N2CCC(O)(C(=O)Nc3ccc(C(C)(C)C)cc3)CC2)cc1
[Q] COc1ccc(OC)c(NC(=O)N2CCC(O)(C(=O)Nc3ccc(C(C)(C)C)cc3)CC2)c1
[R] NC1(C(=O)Nc2ccc(OC(F)(F)F)cc2)CCN(S(=O)(=O)c2ccccc2Cl)CC1
**Query** Please list these in order of increasing pIC50. Thank you! Rank the items, then write their labels in that order.
**Result** Q, P, R

* * *

targetSystem: human HSL (Homo sapiens, UniProt Q05469)
Sequence (Q05469 1-1076): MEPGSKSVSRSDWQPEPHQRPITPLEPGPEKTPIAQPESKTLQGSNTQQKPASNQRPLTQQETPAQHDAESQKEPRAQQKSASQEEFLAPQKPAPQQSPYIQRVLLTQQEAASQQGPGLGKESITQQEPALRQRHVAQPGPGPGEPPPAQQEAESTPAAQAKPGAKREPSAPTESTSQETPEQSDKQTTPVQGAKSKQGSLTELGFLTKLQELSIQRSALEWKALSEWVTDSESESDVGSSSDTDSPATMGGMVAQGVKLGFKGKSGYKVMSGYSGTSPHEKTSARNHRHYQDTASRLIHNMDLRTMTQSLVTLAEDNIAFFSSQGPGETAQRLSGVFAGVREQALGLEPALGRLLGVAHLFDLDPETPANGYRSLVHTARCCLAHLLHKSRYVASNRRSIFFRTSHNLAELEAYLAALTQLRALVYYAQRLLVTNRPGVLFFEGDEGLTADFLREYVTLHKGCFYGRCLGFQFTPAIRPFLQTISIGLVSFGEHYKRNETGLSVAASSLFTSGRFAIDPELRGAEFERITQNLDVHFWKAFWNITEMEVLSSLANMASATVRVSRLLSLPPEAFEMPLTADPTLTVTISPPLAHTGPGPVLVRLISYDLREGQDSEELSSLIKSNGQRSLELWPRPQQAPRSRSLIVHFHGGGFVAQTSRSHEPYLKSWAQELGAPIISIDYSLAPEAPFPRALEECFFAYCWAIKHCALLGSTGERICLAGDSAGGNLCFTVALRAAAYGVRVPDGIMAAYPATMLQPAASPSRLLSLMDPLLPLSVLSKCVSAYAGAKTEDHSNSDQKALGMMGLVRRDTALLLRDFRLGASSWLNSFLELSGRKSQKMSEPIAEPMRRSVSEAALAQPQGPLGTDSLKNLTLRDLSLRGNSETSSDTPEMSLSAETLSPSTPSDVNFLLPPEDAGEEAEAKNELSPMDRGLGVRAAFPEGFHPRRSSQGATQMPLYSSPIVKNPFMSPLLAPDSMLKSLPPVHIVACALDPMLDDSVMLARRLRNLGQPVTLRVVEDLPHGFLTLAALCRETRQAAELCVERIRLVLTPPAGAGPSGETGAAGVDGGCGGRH
Structures can show the parent of a compound that is named as a salt.
measuredProperty: IC50 (nM)

Guide cases for IC50, answers given:
INSERT INTO results (compound, observedresult) VALUES
  ('CC(C)(C)c1ccc(NC(=O)C2(O)CCN(Cc3ccccc3C(F)(F)F)CC2)cc1', 230),
  ('CC(C)c1ccc(NC(=O)C2(N)CCN(C(=O)c3ccc(F)cc3)CC2)cc1', 490),
  ('NC1(C(=O)Nc2ccc(OCC(F)(F)F)cc2)CCN(S(=O)(=O)c2ccccc2Cl)CC1', 110);

[a] CC(C)c1ccc(NC(=O)C2(N)CCN(C(=O)Nc3ccc(C(C)(C)C)cc3)CC2)cc1 [Example 89, hydrochloride]
[b] Cc1ccc(S(=O)(=O)N2CCC(O)(C(=O)Nc3ccc(C(C)(C)C)cc3)CC2)cc1
**Query** Larger number for IC50: a , or b ? Answer with the label corresponding to your selection.
**Result** b
(b: 200 nM, a: 120 nM)
